Biological target: SFRP-1 (Homo sapiens, UniProt Q8N474)
Sequence (Q8N474 32-314): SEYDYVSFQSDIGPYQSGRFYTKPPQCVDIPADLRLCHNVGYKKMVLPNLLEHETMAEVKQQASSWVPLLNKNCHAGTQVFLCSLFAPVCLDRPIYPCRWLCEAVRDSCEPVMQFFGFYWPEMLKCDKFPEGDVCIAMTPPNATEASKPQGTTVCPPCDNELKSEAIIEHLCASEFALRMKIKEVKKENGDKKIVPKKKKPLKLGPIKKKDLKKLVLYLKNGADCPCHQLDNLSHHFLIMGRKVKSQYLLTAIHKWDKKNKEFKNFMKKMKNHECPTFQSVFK
Test: Cell-based assay for in vitro measurement of SFRP-1/SARP2 antagonist activity (U2OS cells co-transfected with 16x TCF-tk-Luciferase reporter, Wnt and hSFRP-1);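 also: U2OS cells co-transfected with a TCF-tk luciferase reporter, a Wnt vector, hSFRP-1 or empty vector and CMV-βgal, luciferase luminescence read in cell lysates alongside βgal activity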
Conditions: U2OS, read-out: Fold Induction with SFRP-1, Conc 15 μM; with SFRP-1; fold induction over SFRP-1 control, single dose
Quantity kind: fold induction at 15 µM
Number only, please.

COCCCNS(=O)(=O)c1cc(S(=O)(=O)c2ccccc2)ccc1C :: 2.9
COc1cccc(CCNS(=O)(=O)c2cc(S(=O)(=O)c3ccccc3)ccc2OC)c1 :: 1.6

Prompt line: Tell me measured fold induction at 15 µM for Cc1ccc(S(=O)(=O)c2ccc(F)cc2)cc1S(=O)(=O)NCCc1c[nH]cn1 please.
Response line: 3

Prompt line: # return recorded fold induction at 15 µM for input CCN(CC)CCCNS(=O)(=O)c1cc(S(=O)(=O)c2ccc(F)cc2)ccc1C
Response line: 2.6

Prompt line: Quick one: give measured fold induction at 15 µM for COc1ccc(S(=O)(=O)c2ccccc2)cc1S(=O)(=O)NCCc1ccccc1
Response line: 1.5

Prompt line: Return fold induction at 15 µM (reported value) for this compound: Cc1ccc(S(=O)(=O)c2ccc(Cl)cc2)cc1S(=O)(=O)NC[C@@H](C)c1ccccc1
Response line: 1.1

Prompt line: Give fold induction at 15 µM for Cc1ccc(S(=O)(=O)c2ccc(Cl)cc2Cl)cc1S(=O)(=O)NCCCn1ccnc1
Response line: 1.8

Prompt line: Give me measured fold induction at 15 µM, please, for this compound: CC(C)c1ccc(S(=O)(=O)c2ccc(C(C)(C)C)cc2)cc1S(=O)(=O)NCCCn1ccnc1
Response line: 2.2
